Reported cAMP EC50 (assay 1) is given for each of the following binders.
tested_system: human glucagon receptor (human, UniProt P47871 26-477)
Sequence (P47871 26-477): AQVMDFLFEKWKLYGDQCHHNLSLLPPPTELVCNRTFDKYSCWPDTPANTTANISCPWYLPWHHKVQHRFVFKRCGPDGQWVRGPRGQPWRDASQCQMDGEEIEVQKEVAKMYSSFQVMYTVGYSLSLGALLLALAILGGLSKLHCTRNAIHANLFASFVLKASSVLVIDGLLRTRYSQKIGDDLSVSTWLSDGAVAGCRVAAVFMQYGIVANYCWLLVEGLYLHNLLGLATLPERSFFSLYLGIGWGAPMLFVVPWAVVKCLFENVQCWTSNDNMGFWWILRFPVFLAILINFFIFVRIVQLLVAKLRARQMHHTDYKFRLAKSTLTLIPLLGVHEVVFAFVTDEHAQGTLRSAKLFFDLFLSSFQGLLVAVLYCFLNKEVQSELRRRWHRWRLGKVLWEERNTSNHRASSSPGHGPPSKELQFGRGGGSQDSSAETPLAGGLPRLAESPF
test_description: cell-based or functional assay
Numbered stars: 1 amine (or outer) side, 2 acyl side, 3 side chain; on linkers, the order of the positions; unused ones are H or OH. Side chains are listed from the residue outwards. Ends that are not written are not given here. * marks the point of attachment. γGlu = O=C(O)[C@H](CCC(=O)[*:2])N[*:1]; Palmitoyl = CCCCCCCCCCCCCCCC(=O)*; Ahx = NCCCCCC(=O)O
measured_quantity: cAMP EC50 (assay 1) (pM)

[[record]]
binder = "HSQGTFTSDYSEYLDSK([Ahx-Palmitoyl])RAADFVAWLERGG-NH2 (not fully specified) [g818]"
observed_value = 8.9

[[record]]
binder = "HSQGTFTSDYSKYLDSERARDFVAWLEAGG-NH2 [g840]"
observed_value = 5.3

[[record]]
binder = "HSQGTFTSDYSKYLDSRRAQDFVQWLVAGGGGGG-NH2 [g315]"
observed_value = 5.04

[[record]]
binder = "HSQGTFTSDYSEYLDSK([Ahx-Palmitoyl])RARDFVEWLERGG-NH2 (not fully specified) [g771]"
observed_value = 5.51

[[record]]
binder = "HXQGTFTSDYSKYLDSKRAQDFVQWLVAGG (Aib at 2 (written X); K(gE-palm) at 17; C-terminal amide) [g384]"
observed_value = 42.9

[[record]]
binder = "HSQGTFTSDYSKYLDSRRAQDFVQWLVAGGGGGGK([γGlu-Palmitoyl])-NH2 [g327]"
observed_value = 2.32

